# maps each entry to its protein stability index
Assay Info: protein stability index of a GFP-peptide fusion (GPS, HEK-293T) (PSI 1-6); higher = more stable;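 note: 24-mer peptide tiles fused after GFP, lentivirally expressed, FACS-sorted into six equal bins by GFP/DsRed ratio, decoded by Illumina sequencing, PSI is the read-weighted mean bin number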
Test Conditions: treatment: DMSO; c terminus: a fixed tail appended
# answer = number (no unit)

Previously resolved entries follow.
{"Construct Sequence": "VFCDMETDGGGWLVFQRRMDGQTD [TNXB]", "protein stability index": 2.9}
{"Construct Sequence": "PGRGVYLLKFDNSYSLWRSKSVYY [ACBD3]", "protein stability index": 2.78}
{"Construct Sequence": "VSTWFANARRRLKKENKMTWAPKN [IRX6]", "protein stability index": 2.57}
{"Construct Sequence": "PGDPKWLDVIERDLHRQFPFHEMF [TBC1D10A]", "protein stability index": 2.46}
{"Construct Sequence": "MSNHTRERVTVAKLTLENFYSNLI [STK38L]", "protein stability index": 2.21}

Fill blank: measured protein stability index of the sequence FKSLDKKNDGRIDAQEIMQSLRDL [SLC25A25] is ____.
4

Fill blank: measured protein stability index of the sequence ALAAATAAAAAAASAAAATAAFTT [SPAG8] is ____.
3.04

Fill blank: measured protein stability index of the sequence EITTLRQVLSAKERHLVEIKQKLG [TPD52L1] is ____.
2.97

Fill blank: measured protein stability index of the sequence FVTYVFFVFFVLLNMFLAIINDTY [PKD2L1] is ____.
2.3

Fill blank: measured protein stability index of the sequence PTHPSSTHALAEWASRREAFAQRP [CDC25B] is ____.
4

Fill blank: measured protein stability index of the sequence LRDTYKLWVPQPPPRTIKRTRRRL [PWWP2B] is ____.
3.46

Fill blank: measured protein stability index of the sequence GFALNPDKKTCTKIDYCASSNHGC [MATN2] is ____.
3.53

Fill blank: measured protein stability index of the sequence GDHRSPASAQKFSSRSTVPTPAKR [NET1] is ____.
4.75

###

# maps each entry to its protein stability index
Assay Info: protein stability index of a GFP-peptide fusion (GPS, HEK-293T) (PSI 1-6); higher = more stable
Test Conditions: treatment: DMSO; c terminus: a fixed tail appended
# answer = number (no unit)

Fill blank: measured protein stability index of the sequence GSRTPGRSELVEGCGWRCPEHGDR [TRIM14] is ____.
4.19

Fill blank: measured protein stability index of the sequence SKGWGRNYASIIRRDCMWSGFSAR [MYCL] is ____.
2.35

Fill blank: measured protein stability index of the sequence DDDKYKITLKYPHYFPVMKKCCIP [NLN] is ____.
2.9

Fill blank: measured protein stability index of the sequence GLLWLLLGSAGAQYEKYSFRGFPP [P3H4] is ____.
3.08

Fill blank: measured protein stability index of the sequence TLLEAEPPHVLISRPSAPFTEASM [ESR2] is ____.
3.31

Fill blank: measured protein stability index of the sequence YRWHINFTTFFIDCMAALGLAYDR [SCD] is ____.
2.99

Fill blank: measured protein stability index of the sequence DASVQPGPFRTLLQFLYTGQLDEK [RHOBTB1] is ____.
2.51

Fill blank: measured protein stability index of the sequence PSDPPAMSPGPLDALSSPTSVQEA [C2CD2L] is ____.
5.54

Fill blank: measured protein stability index of the sequence NSTSYSNYYRTWNVVVHDWLYYYA [SOAT1] is ____.
2.63

Fill blank: measured protein stability index of the sequence GSIEYSCPASNECEITKRRRKACQ [ESRRA] is ____.
4.88

###

Assay Info: protein stability index of a GFP-peptide fusion (GPS, HEK-293T) (PSI 1-6); higher = more stable
Test Conditions: treatment: MLN4924 1 uM, 8 h; c terminus: native
Classification field: YES = protein stability index at or over 4; NO = protein stability index under 4.

{"Construct Sequence": "FSLTHTHTHTPNHRGINCFFPEL [ANKRD44]", "Category Label": "NO"}

Form field: protein stability index at least 4? Entry: SLGSESEEEEEFYDADEETQMIK [SLC22A15]
YES

Form field: protein stability index at least 4? Entry: LHPFFAGLTPEERSFHTSRNPSR [CLK3]
NO

Form field: protein stability index at least 4? Entry: NDMRDTPLHRAAFTGRKICSQGS [OSBPL1A]
NO

Form field: protein stability index at least 4? Entry: DESGYVSGYKHAGTYDQKVQGGK [TPPP]
YES

Form field: protein stability index at least 4? Entry: TWASPAEVVDLTLDEDSRRKYLL [C18orf25]
YES

Form field: protein stability index at least 4? Entry: ELSTLRNLFKQLPEPLLASSGHC [CEBPB]
NO

Form field: protein stability index at least 4? Entry: REMVMYSITVAFWLLNSWLWFRR [MFF]
NO

###

Assay Info: protein stability index of a GFP-peptide fusion (GPS, HEK-293T) (PSI 1-6); higher = more stable
Test Conditions: treatment: DMSO; c terminus: a fixed tail appended
Classification field: true = protein stability index at or over 3; false = protein stability index under 3.

{"Construct Sequence": "LYWRDIKQTGIVFGSFLLLLFSLT [RTN1]", "Category Label": "false"}
{"Construct Sequence": "GRGAQGENERVRGLETGDWGGAPK [ZSWIM9]", "Category Label": "true"}
{"Construct Sequence": "GTWDDAFATFCGGLAANGALQRLD [LRRC45]", "Category Label": "true"}

Form field: protein stability index at least 3? Entry: EGVATYAAAVLFRMSEDKPQDYKK [CTNNB1]
true

Form field: protein stability index at least 3? Entry: FVLSCSYDGLDCQARQFRTFHHPT [SCNN1D]
false

Form field: protein stability index at least 3? Entry: ALIPYVLNPSKLMEKEINGSKVTC [ATL3]
false

Form field: protein stability index at least 3? Entry: LLLLLLASLLPSARLASPLPREEE [ADAMTS4]
false

###

Assay Info: protein stability index of a GFP-peptide fusion (GPS, HEK-293T) (PSI 1-6); higher = more stable
Test Conditions: treatment: MLN4924 1 uM, 8 h; c terminus: a fixed tail appended
# label = bin(measured protein stability index), where bins are c1: < 3; c2: ≥ 3 and < 4; c3: ≥ 4

{"Construct Sequence": "PVANSGTKPKTTAIQGISEKEKAE [DLC1]", "Category Label": "c3"}
{"Construct Sequence": "QSDEEQDSVKVALLETNPYLLALT [CLPTM1]", "Category Label": "c3"}
{"Construct Sequence": "YSKTWTKQPDLTMVRKIGCYAAMK [GAN]", "Category Label": "c1"}

Please report the category associated with NSAEACQYVITHAKVNILLVENDQ [ACSBG2] , nothing else.
c1

Please report the category associated with KNEPYLEAACNDVDRWPAPVPGKT [DENND6A] , nothing else.
c3

Please report the category associated with ARMLFSAVEWARNIPFFPDLQITD [NR2F2] , nothing else.
c1

Please report the category associated with KIKDARKGPLVPFPNQKSEAAEPP [KMT5A] , nothing else.
c3

Please report the category associated with AGGFQQRQGLKYCLPLTFCIHTGL [FBXO3] , nothing else.
c1

###

Assay Info: protein stability index of a GFP-peptide fusion (GPS, HEK-293T) (PSI 1-6); higher = more stable
Test Conditions: treatment: MLN4924 1 uM, 8 h; c terminus: a fixed tail appended
Classification field: 1.0 = protein stability index at or over 3; 0.0 = protein stability index under 3.

Examples with answers:
{"Construct Sequence": "DDSPRSALAAATAAAAAAASAAAA [SPAG8]", "Category Label": 1.0}
{"Construct Sequence": "SNLETIFRIIDSDHSGFISLDEFR [PPEF2]", "Category Label": 0.0}
{"Construct Sequence": "DVVFEIQGTTVPAHRAILVARCEV [RHOBTB3]", "Category Label": 0.0}
{"Construct Sequence": "FVSFFNKWDAENAIQQMGGQWLGG [TIA1]", "Category Label": 0.0}
{"Construct Sequence": "KAVEEELDAEDRPAWNSKLQYILA [SLC6A17]", "Category Label": 1.0}
{"Construct Sequence": "SLGYKEIRKGESRSEALAVDGAGK [CHGA]", "Category Label": 1.0}
{"Construct Sequence": "HHLPLPDNWKSQVEPETRAVIRWM [CPN1]", "Category Label": 0.0}
{"Construct Sequence": "HNNNNNCEENEQSLPPPAGLNSSW [BNIP3L]", "Category Label": 1.0}

Form field: protein stability index at least 3? Entry: LVENDQQLQKILSIPQSSLEPLKA [ACSBG2]
1.0

Form field: protein stability index at least 3? Entry: NSVISVCSSSNLAGNDDSFGSLPS [DLC1]
1.0

Form field: protein stability index at least 3? Entry: DLNNCKNNLEPILEGYISNLRKQL [KRT71]
0.0
